- testTarget: T1, O4-bN
- T1 chain: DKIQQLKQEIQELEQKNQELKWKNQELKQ
- protocolDescription: two-hybrid library CCNG1;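 note: natural log of median RNA to DNA barcode read ratio; higher means stronger binding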
interaction score values for the binders below.
Keep the answer to the number alone.

Some binders with recorded interaction score:
binder: DKNQQLKQENQELEQEIQELEWEIQELEQ [O1-bN]
interaction score: -0.922

binder: DEIQQLEQENQELEQKIQELKWENQELEQ [O15-bN]
interaction score: 0.275

binder: DEIQQLEQKIQELKQENQELEWENQELEQ [O3-bN]
interaction score: 2.41

// moving on: another record for interaction score
Value of interaction score reported for the binder DENQQLEQKNQELKQKIQELKWKIQELKQ [O2-bN] is -1.97

Source: paper PMC10397247
